Attribution: ChEMBL document CHEMBL1949530

# tgt: Fatty-acid amide hydrolase 1 (Homo sapiens)
# protocol.details: Inhibition of human FAAH expressed in CHO cells using 7-amino-4-methylcoumarine amide as substrate preincubated for 1 hr by fluorimetry
pIC50: −log10 of the molar value.
measured.metric: pIC50

P = Cn1cccc(C(OC2CN(C(=O)N3CCCCC3)C2)c2ccc(Cl)cc2)c1=O (racemic)
Q = O=C(N1CCC(F)CC1)N1CC(OC(c2ccc(Cl)cc2)c2cccnc2Cl)C1 (racemic)
R = CC1CCCCN1C(=O)N1CC(OC(c2ccc(Cl)cc2)c2cccnc2Cl)C1 (racemic)
Input: Which order do these items fall in when sorted by pIC50 from largest to smallest? In your reply, arrange the labels in the requested order.
Output: Q, R, P

A = CN(Cc1ccccc1)C(=O)N1CC(OC(c2ccc(Cl)cc2)c2cccnc2Cl)C1 (racemic)
B = O=C(N1CCC(CO)CC1)N1CC(OC(c2ccc(Cl)cc2)c2cccnc2Cl)C1 (racemic)
C = O=C(N1CCN(Cc2ccccc2)CC1)N1CC(OC(c2ccc(Cl)cc2)c2cccnc2Cl)C1 (racemic)
Input: Rank ascending by pIC50. Note for the reader: the ranking is given by listing the labels in the order requested.
Output: B, A, C

* * *

# protocol.details: Cmax in rat at 4 mg/kg, po
# Type: ADME, organism-based
# Set-up: dose 4 mg/kg, route oral
# run.conditions: in vivo
measured.metric: Cmax (ng/mL)
# unit: ng/mL | format: bare number

`O=C(N1CCCCC1)N1CC(O[C@@H](c2ccc(Cl)cc2)c2cccnc2Cl)C1` yielded Cmax of 5

* * *

Below are compounds with their pIC50 as measured on Fatty-acid amide hydrolase 1 (Rattus norvegicus, UniProt P97612).
Sequence (P97612 whole entry): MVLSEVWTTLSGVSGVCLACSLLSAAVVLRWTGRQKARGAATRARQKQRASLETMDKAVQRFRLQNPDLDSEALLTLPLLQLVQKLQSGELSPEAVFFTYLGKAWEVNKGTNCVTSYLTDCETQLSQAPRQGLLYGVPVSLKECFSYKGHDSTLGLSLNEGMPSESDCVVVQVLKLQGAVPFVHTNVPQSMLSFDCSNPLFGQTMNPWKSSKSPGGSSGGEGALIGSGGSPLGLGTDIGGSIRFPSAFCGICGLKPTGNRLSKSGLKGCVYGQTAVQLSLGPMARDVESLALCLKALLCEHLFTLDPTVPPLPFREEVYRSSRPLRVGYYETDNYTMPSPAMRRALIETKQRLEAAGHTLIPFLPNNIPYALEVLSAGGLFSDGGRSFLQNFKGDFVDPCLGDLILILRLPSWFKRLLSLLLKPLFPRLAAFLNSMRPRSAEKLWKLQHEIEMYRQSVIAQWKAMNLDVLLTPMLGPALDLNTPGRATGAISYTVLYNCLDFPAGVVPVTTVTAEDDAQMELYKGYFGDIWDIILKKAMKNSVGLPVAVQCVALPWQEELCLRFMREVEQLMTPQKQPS
pIC50: −log10 of the molar value.
measured.metric: pIC50

Study these solved cases before continuing.
compound	observed.value
CN(C)c1ncccc1C(OC1CN(C(=O)N2CCCCC2)C1)c1ccc(Cl)cc1 (racemic)	5.50
O=C(N1Cc2ccccc2C1)N1CC(OC(c2ccc(Cl)cc2)c2cccnc2Cl)C1 (racemic)	5.40
O=C(N1CCC(F)CC1)N1CC(OC(c2ccc(Cl)cc2)c2cccnc2Cl)C1 (racemic)	6.41
CN(C(=O)N1CC(OC(c2ccc(Cl)cc2)c2cccnc2Cl)C1)c1ccccc1 (racemic)	3.85
O=C(N1CCCC1)N1CC(OC(c2ccc(Cl)cc2)c2cccnc2Cl)C1 (racemic)	5.51

I = CN1CCN(C(=O)N2CC(OC(c3ccc(Cl)cc3)c3cccnc3Cl)C2)CC1 (racemic)
II = O=C(N1CCC(CO)CC1)N1CC(OC(c2ccc(Cl)cc2)c2cccnc2Cl)C1 (racemic)
III = O=C(N1CCCCC1)N1CC(OC(c2ccc(Cl)c(Cl)c2)c2cccnc2Cl)C1 (racemic)
Input: Could you please sort these 3 entries by pIC50 from high to low? List the labels according to the requested ordering.
Output: III, II, I

* * *

# protocol.details: Drug metabolism in rat liver microsomes after 10 mins
# Format: ADME, Microsome
# run.conditions: read-out: Drug metabolism
measured.metric: metabolised at 10 min (%)

compound	metabolised at 10 min, %
O=C(N1CCCCCC1)N1CC(OC(c2ccc(Cl)cc2)c2cccnc2Cl)C1 (racemic)	98
CC1CCCN(C(=O)N2CC(OC(c3ccc(Cl)cc3)c3cccnc3Cl)C2)C1 (racemic)	99
CN(Cc1ccccc1)C(=O)N1CC(O[C@@H](c2ccc(Cl)cc2)c2cccnc2Cl)C1	98
O=C(N1CCCCC1)N1CC(OC(c2ccc(Cl)cc2)c2ccc[nH]c2=O)C1 (racemic)	85
Cc1ncccc1C(OC1CN(C(=O)N2CCCCC2)C1)c1ccc(Cl)cc1 (racemic)	98

1 = CC1CCCCN1C(=O)N1CC(OC(c2ccc(Cl)cc2)c2cccnc2Cl)C1 (racemic)
2 = O=C(N1CC(OC(c2ccc(Cl)cc2)c2cccnc2Cl)C1)N1CCCCC1CO (racemic)
Input: # returns the entry with the larger metabolised at 10 min; inputs 1 and 2 Let me know the label of the one you choose.
Output: 1

* * *

# protocol.details: Drug metabolism in human liver microsomes after 10 mins
# Assay type: ADME, Microsome
# run.conditions: read-out: Drug metabolism
measured.metric: metabolised at 10 min (%)

compound	metabolised at 10 min [%]
O=C(N1CCCCC1)N1CC(OC(c2ccc(Cl)cc2)c2ccc[nH]c2=O)C1 (racemic)	53

P = CN(C(=O)N1CC(OC(c2ccc(Cl)cc2)c2cccnc2Cl)C1)c1ccccc1 (racemic)
Q = O=C(N1CC(OC(c2ccc(Cl)cc2)c2cccnc2Cl)C1)N1CCCCC1CO (racemic)
R = CN1CCN(C(=O)N2CC(OC(c3ccc(Cl)cc3)c3cccnc3Cl)C2)CC1 (racemic)
S = O=C(N1CCCC(O)C1)N1CC(OC(c2ccc(Cl)cc2)c2cccnc2Cl)C1 (racemic)
Input: Arrange these 4 compounds in increasing order of metabolised at 10 min. # answer = labels listed in requested order
Output: S, R, Q, P

* * *

# tgt: Cytochrome P450 3A4 (Homo sapiens, UniProt P08684)
# Sequence (P08684 whole entry): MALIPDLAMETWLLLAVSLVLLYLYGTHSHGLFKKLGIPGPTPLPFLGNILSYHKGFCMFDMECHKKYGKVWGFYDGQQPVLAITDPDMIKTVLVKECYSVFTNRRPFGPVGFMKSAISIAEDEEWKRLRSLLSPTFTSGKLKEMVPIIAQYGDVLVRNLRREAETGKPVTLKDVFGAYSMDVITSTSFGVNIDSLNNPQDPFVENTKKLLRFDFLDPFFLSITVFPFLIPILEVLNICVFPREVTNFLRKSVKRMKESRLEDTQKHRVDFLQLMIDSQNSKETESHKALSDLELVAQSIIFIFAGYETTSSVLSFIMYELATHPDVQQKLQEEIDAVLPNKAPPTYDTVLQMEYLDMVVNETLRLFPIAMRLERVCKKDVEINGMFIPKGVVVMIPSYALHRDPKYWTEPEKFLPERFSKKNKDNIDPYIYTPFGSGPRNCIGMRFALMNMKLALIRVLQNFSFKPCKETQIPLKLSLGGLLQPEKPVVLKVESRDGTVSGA
measured.metric: IC50

Lab note: measured IC50 of `O=C(N1CCCCC1)N1CC(O[C@@H](c2ccc(Cl)cc2)c2cccnc2Cl)C1` was > 10 µM

* * *

# tgt: Voltage-gated inwardly rectifying potassium channel KCNH2 (Homo sapiens)
# Sequence (Q12809 whole entry): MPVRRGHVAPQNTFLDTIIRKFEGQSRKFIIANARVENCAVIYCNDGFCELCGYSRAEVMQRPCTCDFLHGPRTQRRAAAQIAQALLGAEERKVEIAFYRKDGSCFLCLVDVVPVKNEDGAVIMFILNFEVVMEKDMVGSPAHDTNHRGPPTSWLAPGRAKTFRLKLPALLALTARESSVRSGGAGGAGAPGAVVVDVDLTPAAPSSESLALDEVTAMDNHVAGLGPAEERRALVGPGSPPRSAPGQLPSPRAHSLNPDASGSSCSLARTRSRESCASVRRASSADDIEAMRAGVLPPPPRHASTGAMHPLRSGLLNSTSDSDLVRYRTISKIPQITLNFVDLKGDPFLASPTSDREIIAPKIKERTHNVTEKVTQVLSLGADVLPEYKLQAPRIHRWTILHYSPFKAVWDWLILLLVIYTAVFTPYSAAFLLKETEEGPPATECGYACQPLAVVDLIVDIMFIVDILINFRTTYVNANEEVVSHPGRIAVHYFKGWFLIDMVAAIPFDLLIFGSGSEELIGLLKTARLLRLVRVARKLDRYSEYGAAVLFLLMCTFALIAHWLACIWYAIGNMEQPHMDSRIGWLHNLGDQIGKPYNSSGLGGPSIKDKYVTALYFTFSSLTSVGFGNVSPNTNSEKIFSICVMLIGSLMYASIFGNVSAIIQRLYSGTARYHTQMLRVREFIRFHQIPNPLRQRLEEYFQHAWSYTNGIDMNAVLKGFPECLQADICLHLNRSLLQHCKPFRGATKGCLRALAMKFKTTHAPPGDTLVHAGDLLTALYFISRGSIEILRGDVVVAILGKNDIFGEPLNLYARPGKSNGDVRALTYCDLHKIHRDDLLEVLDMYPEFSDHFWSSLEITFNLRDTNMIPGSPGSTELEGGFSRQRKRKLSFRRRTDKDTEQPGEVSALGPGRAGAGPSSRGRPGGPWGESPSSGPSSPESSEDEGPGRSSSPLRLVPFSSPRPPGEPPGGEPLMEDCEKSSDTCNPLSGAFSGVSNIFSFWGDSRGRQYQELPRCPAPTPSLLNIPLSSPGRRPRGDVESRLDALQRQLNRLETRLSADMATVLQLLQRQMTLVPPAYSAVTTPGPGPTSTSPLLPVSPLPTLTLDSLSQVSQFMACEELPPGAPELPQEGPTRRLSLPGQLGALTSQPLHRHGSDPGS
measured.metric: IC50 (µM)
Number only, in µM; omit the unit.

Input `O=C(N1CCCCC1)N1CC(O[C@@H](c2ccc(Cl)cc2)c2cccnc2Cl)C1` . Output IC50: 30.8

* * *

# tgt: Cannabinoid receptor 2 (Homo sapiens, UniProt P34972)
# Sequence (P34972 whole entry): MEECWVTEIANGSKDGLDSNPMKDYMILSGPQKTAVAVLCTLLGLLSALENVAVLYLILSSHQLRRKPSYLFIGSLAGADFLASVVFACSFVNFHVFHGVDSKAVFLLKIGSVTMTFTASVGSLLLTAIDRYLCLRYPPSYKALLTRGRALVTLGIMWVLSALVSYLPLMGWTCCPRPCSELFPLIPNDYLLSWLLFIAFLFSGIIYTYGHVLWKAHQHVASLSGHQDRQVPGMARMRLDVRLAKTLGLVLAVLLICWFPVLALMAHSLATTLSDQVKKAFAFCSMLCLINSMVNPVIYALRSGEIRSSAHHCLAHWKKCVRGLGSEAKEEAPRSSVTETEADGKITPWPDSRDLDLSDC
measured.metric: pKi
// field semantics: pKi = negative decimal log of concentration (mol/L)

Item `CN(Cc1ccccc1)C(=O)N1CC(O[C@@H](c2ccc(Cl)cc2)c2cccnc2Cl)C1` was tested on Cannabinoid receptor 2 (Homo sapiens, UniProt P34972); the reported pKi is 5.40

* * *

# tgt: Cytochrome P450 2C9 (Homo sapiens)
# Sequence (P11712 whole entry): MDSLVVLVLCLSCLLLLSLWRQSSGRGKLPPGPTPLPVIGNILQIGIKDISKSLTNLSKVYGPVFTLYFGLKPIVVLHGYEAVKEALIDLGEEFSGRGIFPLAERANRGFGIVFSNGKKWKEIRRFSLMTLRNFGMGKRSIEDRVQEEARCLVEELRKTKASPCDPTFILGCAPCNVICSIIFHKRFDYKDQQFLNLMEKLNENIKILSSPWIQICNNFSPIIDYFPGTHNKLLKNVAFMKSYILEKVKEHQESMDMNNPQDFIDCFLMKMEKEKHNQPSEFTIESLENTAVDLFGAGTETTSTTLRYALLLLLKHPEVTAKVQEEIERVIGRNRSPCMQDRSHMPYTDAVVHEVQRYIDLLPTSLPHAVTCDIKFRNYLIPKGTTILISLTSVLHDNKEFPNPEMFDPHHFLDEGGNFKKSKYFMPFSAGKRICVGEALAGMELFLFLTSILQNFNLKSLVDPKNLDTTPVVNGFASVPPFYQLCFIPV
measured.metric: IC50

Item: `O=C(N1CCCCC1)N1CC(O[C@@H](c2ccc(Cl)cc2)c2cccnc2Cl)C1` | IC50: > 10 µM

* * *

# tgt: Fatty-acid amide hydrolase 1 (Homo sapiens, UniProt O00519)
# Sequence (O00519 whole entry): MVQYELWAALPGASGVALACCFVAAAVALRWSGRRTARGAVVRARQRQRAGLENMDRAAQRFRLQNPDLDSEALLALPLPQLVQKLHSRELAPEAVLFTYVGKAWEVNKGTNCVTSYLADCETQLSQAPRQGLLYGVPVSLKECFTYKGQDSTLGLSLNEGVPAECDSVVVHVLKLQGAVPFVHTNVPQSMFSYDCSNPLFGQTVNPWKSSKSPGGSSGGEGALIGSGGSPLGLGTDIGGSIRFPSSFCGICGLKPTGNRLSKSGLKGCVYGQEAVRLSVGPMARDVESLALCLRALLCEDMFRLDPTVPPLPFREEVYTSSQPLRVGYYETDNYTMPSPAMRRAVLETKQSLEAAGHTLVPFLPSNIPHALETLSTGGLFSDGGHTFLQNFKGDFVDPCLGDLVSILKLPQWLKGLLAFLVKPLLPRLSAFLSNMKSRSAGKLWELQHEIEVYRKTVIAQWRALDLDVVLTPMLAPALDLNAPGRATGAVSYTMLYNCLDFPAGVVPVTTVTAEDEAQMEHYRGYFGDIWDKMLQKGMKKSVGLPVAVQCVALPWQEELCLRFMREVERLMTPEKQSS
# protocol.details: Inhibition of human FAAH expressed in CHO cells using 7-amino-4-methylcoumarine amide as substrate preincubated for 1 hr by fluorimetry
pIC50: −log10 of the molar value.
measured.metric: pIC50

A selection of reference data follows.
compound	pIC50
CN(CCc1ccccc1)C(=O)N1CC(OC(c2ccc(Cl)cc2)c2cccnc2Cl)C1 (racemic)	5.18
O=C(N1CCCCC1)N1CC(OC(c2ccc3c(c2)OCO3)c2cccnc2Cl)C1 (racemic)	5.48

a = O=C(N1CCC(F)(F)CC1)N1CC(OC(c2ccc(Cl)cc2)c2cccnc2Cl)C1 (racemic)
b = CN(C(=O)N1CC(OC(c2ccc(Cl)cc2)c2cccnc2Cl)C1)c1ccccc1 (racemic)
c = CC1CCCN(C(=O)N2CC(OC(c3ccc(Cl)cc3)c3cccnc3Cl)C2)C1 (racemic)
d = COc1ccc(C(OC2CN(C(=O)N3CCCCC3)C2)c2cccnc2Cl)cc1 (racemic)
e = CN1CCN(C(=O)N2CC(OC(c3ccc(Cl)cc3)c3cccnc3Cl)C2)CC1 (racemic)
Input: I would appreciate it if you could sort these 5 compounds by pIC50, starting from the smallest number. Reply with the item labels sorted in the order that was asked for.
Output: b, e, d, a, c
(b: 3.71, e: 4.54, d: 5.04, a: 5.29, c: 5.79)

* * *

# protocol.details: Drug metabolism in rat liver microsomes after 10 mins
# Format: ADME, Microsome
# run.conditions: read-out: Drug metabolism
measured.metric: metabolised at 10 min (%)

# example entries with known answers
molecule	unit.annotation	metabolised at 10 min
O=C(N1Cc2ccccc2C1)N1CC(OC(c2ccc(Cl)cc2)c2cccnc2Cl)C1 (racemic)	%	45
Cn1cccc(C(OC2CN(C(=O)N3CCCCC3)C2)c2ccc(Cl)cc2)c1=O (racemic)	%	98
O=C(N1CCC(F)CC1)N1CC(OC(c2ccc(Cl)cc2)c2cccnc2Cl)C1 (racemic)	%	94
O=C(N1CCCCC1)N1CC(OC(c2ccc3c(c2)OCO3)c2cccnc2Cl)C1 (racemic)	%	88

a = CN(Cc1ccccc1)C(=O)N1CC(OC(c2ccc(Cl)cc2)c2cccnc2Cl)C1 (racemic)
b = O=C(N1CCCCC1)N1CC(OCc2cccnc2Cl)C1
Input: Looking only at measured metabolised at 10 min, which entry is lower, a or b ? Kindly give the label for the entry you pick.
Output: b
(b: 49%, a: 98%)

P = CN(C)c1ncccc1C(OC1CN(C(=O)N2CCCCC2)C1)c1ccc(Cl)cc1 (racemic)
Q = O=C(N1CCC(CO)CC1)N1CC(OC(c2ccc(Cl)cc2)c2cccnc2Cl)C1 (racemic)
R = O=C(N1CCC(O)C1)N1CC(OC(c2ccc(Cl)cc2)c2cccnc2Cl)C1 (racemic)
S = CCN(CCO)C(=O)N1CC(OC(c2ccc(Cl)cc2)c2cccnc2Cl)C1 (racemic)
Input: Form: Sort by [metabolised at 10 min] Order [ ascending ] The response must list the labels following the requested ordering.
Output: R, Q, S, P
